Each recorded value in this set is attributed to PubChem BioAssay AID1159580.

Procedure Summary: chemical genetic growth profiling, strain panel (AID 1159580);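 further: tested at 20 µM; growth read once vehicle control cultures reached saturation at 30 °C; 1 = growth at the plate median or of vehicle wells; lower values mean less growth of the strain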
Details: S. cerevisiae deletion strains, growth OD, locus YLL001W, strain dnm1, stronger effect = lower value
Hit rate of the full screen: of about 5,500 compounds, about 2,000 (36%) were called active. About 18% were inconclusive and are not listed. This is one part of the list.
This section presents compounds with their documented normalized growth values.
Lab note: write the figure by itself, no unit.

Guide cases for normalized growth, answers given:
| Compound | normalized growth |
| --- | --- |
| CCC(C)C(=O)O[C@@H]1C[C@@]2(C)[C@H](c3ccoc3)OC(=O)CC23OC2(C)O[C@]14[C@]1(C)[C@@H](CC(=O)OC)C5(C)CC1(O)[C@](O)(C5OC(=O)C1(C)OC1C)[C@@H](OC(C)=O)[C@]34O2 (some centres not stated) | 1.01 |
| Cc1[nH]c2ccccc2c1CN(C)C | 1.01 |
| CCOC(=O)n1ccn(C)c1=S | 0.951 |

*Q* Give recorded normalized growth. CC(=O)Oc1cc(OC(C)=O)c2c(c1)O[C@H](c1ccc(OC(C)=O)c(OC(C)=O)c1)[C@@H](OC(C)=O)C2
*A* 0.992

*Q* Give recorded normalized growth. C=C[C@@](C)(O)CCC1C(=C)C[C@H](O)C2C(C)(C)CCCC12C (some centres not stated)
*A* 0.97

*Q* Give recorded normalized growth. CCCCCCCCC(=O)NCc1ccc(O)c(OC)c1
*A* 1

*Q* Give recorded normalized growth. CCN1CCCC(OC(=O)C(c2ccccc2)c2ccccc2)C1 (configuration not stated)
*A* 0.971
